Reference source: PubChem BioAssay AID1159580

What normalized growth was measured for each of the following?
experiment: chemical genetic growth profiling, strain panel (AID 1159580);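 further: tested at 20 µM; growth read once vehicle control cultures reached saturation at 30 °C; 1 = growth at the plate median or of vehicle wells; lower values mean less growth of the strain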; details: S. cerevisiae deletion strains, growth OD, locus YER155C, strain BEM2, active compounds read low
The whole screen tested about 5,500 compounds, of which about 2,000 (36%) were called active. About 18% were inconclusive and are not listed. This is one part of the list.
The response must contain the number and no unit.

q: // query normalized growth value for entry `O=C1CCc2cc(OCCCCc3nnnn3C3CCCCC3)ccc2N1`
a: 1.02

q: // query normalized growth value for entry `COc1ccc(-c2coc3cc(OC)cc(O)c3c2=O)cc1`
a: 0.967

q: // query normalized growth value for entry CC(=O)O[C@H]1C[C@@]2(C)[C@H](c3ccoc3)OC(=O)[C@H]3O[C@]32[C@@]2(C)C1[C@]1(C)C(C[C@H]2OC(C)=O)C(C)(C)[C@H](OC(C)=O)C[C@@H]1OC(C)=O (some centres undefined)
a: 1.01

q: // query normalized growth value for entry `CC(=O)Nc1ccc(OC(=O)c2ccccc2O)cc1`
a: 0.945

q: // query normalized growth value for entry CCOC(=O)C1C(C=C(C)C)C1(C)C (centres undefined)
a: 1

q: // query normalized growth value for entry CCN(CCCCOC(=O)c1ccc(OC)c(OC)c1)C(C)Cc1ccc(OC)cc1 (centres undefined)
a: 0.999

q: // query normalized growth value for entry Cc1cc(=O)c2c(O)c3c(cc2o1)OCC(C)CC3 (centres undefined)
a: 0.849

q: // query normalized growth value for entry `Nc1ccc(C(=O)O)c(O)c1`
a: 1

q: // query normalized growth value for entry `O=c1[nH]c2cc(Cl)c(Cl)cc2[nH]c1=O`
a: 1

q: // query normalized growth value for entry `COc1c2c(cc3c1OCO3)CC[N+](C)=C2`
a: 0.976

q: // query normalized growth value for entry `O=C1c2c(O)ccc(O)c2C(=O)c2c(NCCNCCO)ccc(NCCNCCO)c21`
a: 1.04

q: // query normalized growth value for entry CC1NC(=O)NC1=O (centres undefined)
a: 0.995

q: // query normalized growth value for entry CC(=O)OC1CC2C(C)(C)CCCC2(C)C2CCC3(C)C(c4ccoc4)OC(=O)C4OC43C12C (centres undefined)
a: 1

q: // query normalized growth value for entry `Nc1ccc(C(=O)Oc2ccccc2)c(O)c1`
a: 0.947

----------
assay: chemical genetic growth profiling, strain panel (AID 1159580);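 further: tested at 20 µM; growth read once vehicle control cultures reached saturation at 30 °C; 1 = growth at the plate median or of vehicle wells; lower values mean less growth of the strain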; details: S. cerevisiae deletion strains, growth OD, locus YJL166W, strain qcr8, active compounds read low
About 2,000 (36%) of roughly 5,500 compounds were called active. Inconclusive results (about 18%) are left out. The list shows a part of the results.
What normalized growth was measured for each of the following?
The response must contain the number and no unit.

q: // query normalized growth value for entry `O=c1c(-c2ccc(O)cc2)coc2cc(O)cc(O)c12`
a: 1

q: // query normalized growth value for entry C=C1C(N)CC2CC1C2(C)C (centres undefined)
a: 0.997

q: // query normalized growth value for entry `O=C1CN2Cc3c(ccc(Cl)c3Cl)N=C2N1`
a: 0.993

q: // query normalized growth value for entry `CC1=C2C(=CO[C@H](C)[C@H]2C)C(=O)C(C(=O)O)=C1O`
a: 0.983

q: // query normalized growth value for entry CC(=O)O[C@H]1C[C@@H](O)C(C)(C)C2C[C@@H](OC(C)=O)[C@]3(C)C(CC[C@@]4(C)[C@H](c5ccoc5)OC(=O)C5OC543)[C@]21C (some centres undefined)
a: 0.999

q: // query normalized growth value for entry `COc1ccc2cc3[n+](cc2c1OC)CCc1cc2c(cc1-3)OCO2`
a: 1.01

q: // query normalized growth value for entry `COc1c2c(cc3c1OCO3)CC[N+](C)=C2`
a: 1.01

q: // query normalized growth value for entry COc1cc([C@@H]2c3cc4c(cc3C(O[C@@H]3O[C@@H]5CO[C@@H](c6cccs6)OC5[C@H](O)[C@H]3O)C3COC(=O)[C@@H]32)OCO4)cc(OC)c1O (some centres undefined)
a: 1.01

q: // query normalized growth value for entry `CC(C)c1ccc2c(c1O)CC[C@H]1C3=C(CC[C@]21C)C(=O)OC3`
a: 0.987
